Values compiled from the kinase profiling compilation of Christmann-Franck et al. (2016).

- Test system: ABL1 (human), P00519 [F317I]
- Sequence (P00519 whole entry F317I, looked up): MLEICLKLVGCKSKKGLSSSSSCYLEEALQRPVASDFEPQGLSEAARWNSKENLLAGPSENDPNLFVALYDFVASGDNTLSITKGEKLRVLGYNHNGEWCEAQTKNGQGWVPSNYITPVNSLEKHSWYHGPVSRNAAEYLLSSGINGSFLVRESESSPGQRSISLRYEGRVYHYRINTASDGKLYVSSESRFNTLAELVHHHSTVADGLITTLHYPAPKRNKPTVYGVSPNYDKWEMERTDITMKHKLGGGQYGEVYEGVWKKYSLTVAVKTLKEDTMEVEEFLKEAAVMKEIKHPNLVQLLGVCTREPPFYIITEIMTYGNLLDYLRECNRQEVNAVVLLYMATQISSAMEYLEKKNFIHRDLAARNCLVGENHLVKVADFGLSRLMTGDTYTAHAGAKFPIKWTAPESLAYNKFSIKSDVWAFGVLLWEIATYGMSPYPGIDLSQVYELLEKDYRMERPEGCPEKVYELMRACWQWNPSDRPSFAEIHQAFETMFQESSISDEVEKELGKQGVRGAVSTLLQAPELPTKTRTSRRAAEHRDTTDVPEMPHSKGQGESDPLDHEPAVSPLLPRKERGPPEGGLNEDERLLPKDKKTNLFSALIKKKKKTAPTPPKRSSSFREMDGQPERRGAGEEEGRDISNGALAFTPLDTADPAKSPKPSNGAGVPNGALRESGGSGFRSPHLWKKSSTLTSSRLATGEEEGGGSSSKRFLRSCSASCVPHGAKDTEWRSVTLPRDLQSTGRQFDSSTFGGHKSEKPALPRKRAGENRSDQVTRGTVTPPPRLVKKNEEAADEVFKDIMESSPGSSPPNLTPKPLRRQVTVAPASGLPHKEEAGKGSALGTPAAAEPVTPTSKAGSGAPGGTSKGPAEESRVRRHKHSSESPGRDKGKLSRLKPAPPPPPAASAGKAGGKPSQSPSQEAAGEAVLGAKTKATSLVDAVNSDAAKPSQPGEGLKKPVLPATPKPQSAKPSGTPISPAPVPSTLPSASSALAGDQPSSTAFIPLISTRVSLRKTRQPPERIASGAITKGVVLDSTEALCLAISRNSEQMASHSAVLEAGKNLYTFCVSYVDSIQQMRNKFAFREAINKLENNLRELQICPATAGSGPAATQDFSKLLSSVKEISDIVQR
- measurement_description: KINOMEscan competition binding
- measurement_setup: compound 10.0 µM
measured_property: kinase still bound, per cent of control (%)
Return type: number; implicit unit %.

Query string: I am curious: what kinase still bound, per cent of control value has been reported for "C=CC(=O)Nc1ccc(CN(C(=O)Nc2c(Cl)c(OC)cc(OC)c2Cl)c2cc(Nc3ccc(N4CCN(C)CC4)cc3)ncn2)cc1" ?
Result string: 100

Query string: Next record, please: "N#CCNC(=O)c1ccc(-c2ccnc(Nc3ccc(N4CCOCC4)cc3)n2)cc1"
Result string: 55

Query string: Also "COc1cc(N2CCN(C)CC2)ccc1Nc1ncc2c(n1)N(C)c1ccccc1C(=O)N2C" , if possible.
Result string: 5

Query string: Field entry: "CS(=O)(=O)N1CCN(Cc2cc3nc(-c4cccc5[nH]ncc45)nc(N4CCOCC4)c3s2)CC1"
Result string: 100

Query string: Same read-out for COc1cc(C)c(Sc2cnc(NC(=O)c3ccc(CNC(C)C(C)C)cc3)s2)cc1C(=O)N1CCN(C(C)=O)CC1 (stereo not drawn) ?
Result string: 100

Query string: Consider next the compound "Cc1cn(-c2cc(C(=O)Nc3ccc(C)c(NC(=O)c4ccno4)c3)cc(C(F)(F)F)c2)cn1" in the same way.
Result string: 0.95

Query string: Again, but for "CCC(=O)N1CCN(c2ccc(-n3c(=O)ccc4cnc5ccc(-c6cnc7ccccc7c6)cc5c43)cc2C(F)(F)F)CC1"
Result string: 100

Query string: Please give the result for COc1cc(C(=O)NC2CCN(C)CC2)ccc1Nc1ncc2c(n1)N(C1CCCC1)C(C)CC(=O)N2C (stereo not drawn) too.
Result string: 100

====

- test_system: PKN2 (human)
- measurement_description: KINOMEscan competition binding
- measurement_setup: compound 10.0 µM
measured_property: kinase still bound, per cent of control (%)
A number alone suffices; assume %.

molecule	kinase still bound, per cent of control (%)
COc1cc(C)c(Sc2cnc(NC(=O)c3ccc(CNC(C)C(C)C)cc3)s2)cc1C(=O)N1CCN(C(C)=O)CC1 (stereo not given)	100
COc1cc2c(Nc3ccc(NC(=O)c4ccccc4)cc3)ncnc2cc1OCCCN1CCOCC1	100
N#C/C(=C1/Nc2ccccc2S1)c1ccnc(NCCc2cccnc2)n1	100
Cc1cn(-c2cc(C(=O)Nc3ccc(C)c(NC(=O)c4ccno4)c3)cc(C(F)(F)F)c2)cn1	100

Query string: I am curious: what kinase still bound, per cent of control value has been reported for CC1=C(C(=O)Nc2cc3cn[nH]c3cc2F)C(c2ccc(C(F)(F)F)cc2)CC(=O)N1 (stereo not given) ?
Result string: 52

====

Recorded kinase still bound, per cent of control for the following compounds
- test_system: CDK5 (human)
- measurement_description: KINOMEscan competition binding
- measurement_setup: compound 10.0 µM
Report only the number, with the unit % understood.

Example entries and their recorded answers appear below.
compound	test_system	numeric_readout
CC1=C(C(=O)Nc2cc3cn[nH]c3cc2F)C(c2ccc(C(F)(F)F)cc2)CC(=O)N1 (stereo not given)	CDK5 (human)	80
COc1cc2ncnc(Nc3cccc(Cl)c3)c2cc1OC	CDK5 (human)	100
N#Cc1cc(-c2ccnc(Nc3ccc(-n4cnc(-c5cccnc5)n4)cc3)n2)cc(N2CCOCC2)c1	CDK5 (human)	79
N#C/C(=C1/Nc2ccccc2S1)c1ccnc(NCCc2cccnc2)n1	CDK5 (human)	100

Moving on to another compound below.
Query string: Look up kinase still bound, per cent of control for this compound: "CCOc1cc(N2CCC(O)CC2)ccc1Nc1ncc2c(n1)N(C)c1ccccc1C(=O)N2C"
Result string: 100

====

kinase still bound, per cent of control values for the molecules below.
- test_system: MAP3K13 (human)
- measurement_description: KINOMEscan competition binding
- measurement_setup: compound 10.0 µM
Kindly answer with a numeric value in %, unit omitted.

Some solved entries appear below for comparison.
mol	unit_string	kinase still bound, per cent of control
CC(=O)c1c(C)c2cnc(Nc3ccc(N4CCNCC4)cn3)nc2n(C2CCCC2)c1=O	%	82
CCCS(=O)(=O)Nc1ccc(F)c(C(=O)c2c[nH]c3ncc(Cl)cc23)c1F	%	100
COc1cc2ncnc(Nc3cccc(Cl)c3)c2cc1OC	%	100
CCOc1cc(N2CCC(O)CC2)ccc1Nc1ncc2c(n1)N(C)c1ccccc1C(=O)N2C	%	100
C=CC(=O)Nc1ccc(C(=O)c2sc(Nc3ccc(N4CCN(C)CC4)cc3OC)nc2N)cc1	%	100

Query string: Any idea what its kinase still bound, per cent of control is? The molecule is "CCN1CCN(Cc2ccc(NC(=O)c3ccc(C)c(/C=C/c4cnc5[nH]ccc5c4OC)c3)cc2C(F)(F)F)CC1"
Result string: 20

Query string: Request: "N#C/C(=C1/Nc2ccccc2S1)c1ccnc(NCCc2cccnc2)n1"
Result string: 100

Query string: Cool, now "CNC(=O)Nc1ccc(-c2nc(N3CC4CCC(C3)O4)c3cnn(C4CCC5(CC4)OCCO5)c3n2)cc1"
Result string: 82

Query string: Next entry: "CCc1nc(-c2cccc(C)c2)c(-c2ccnc(NC(=O)c3ccccc3)c2)s1"
Result string: 100

====

- test_system: PDPK1 (human)
- measurement_description: KINOMEscan competition binding
- measurement_setup: compound 10.0 µM
Catalogue of kinase still bound, per cent of control values
# include the unit after the value

Known kinase still bound, per cent of control results, listed for orientation:
mol	kinase still bound, per cent of control
N#C/C(=C1/Nc2ccccc2S1)c1ccnc(NCCc2cccnc2)n1	100%
Cc1cn(-c2cc(C(=O)Nc3ccc(C)c(NC(=O)c4ccno4)c3)cc(C(F)(F)F)c2)cn1	100%
O=c1[nH]c2ccccc2n1C1CCN(Cc2ccc(-c3nc4cc5[nH]cnc5cc4nc3-c3ccccc3)cc2)CC1	93%

Query string: I have this compound here, "CCc1nc(-c2cccc(C)c2)c(-c2ccnc(NC(=O)c3ccccc3)c2)s1" , and I need its recorded kinase still bound, per cent of control.
Result string: 89%

Query string: Would you mind doing "COc1cc2ncnc(Nc3cccc(Cl)c3)c2cc1OC" as well?
Result string: 80%

====

Form field: kinase still bound, per cent of control (one value per entry).
- test_system: TYK2 JH2 pseudokinase (human)
- measurement_description: KINOMEscan competition binding
- measurement_setup: compound 10.0 µM
Reply numerically in %, unit not repeated.

# annotated cases, reported kinase still bound, per cent of control shown
compound	measured_property	unit_string	numeric_readout
CCc1nc(-c2cccc(C)c2)c(-c2ccnc(NC(=O)c3ccccc3)c2)s1	kinase still bound, per cent of control	%	57
CC1=C(C(=O)Nc2cc3cn[nH]c3cc2F)C(c2ccc(C(F)(F)F)cc2)CC(=O)N1 (stereo unspecified)	kinase still bound, per cent of control	%	100
Cc1cn(-c2cc(C(=O)Nc3ccc(C)c(NC(=O)c4ccno4)c3)cc(C(F)(F)F)c2)cn1	kinase still bound, per cent of control	%	100
COc1cc2c(Nc3ccc(NC(=O)c4ccccc4)cc3)ncnc2cc1OCCCN1CCOCC1	kinase still bound, per cent of control	%	83
CCN(CCO)CCCOc1ccc2c(Nc3cc(CC(=O)Nc4cccc(F)c4)[nH]n3)ncnc2c1	kinase still bound, per cent of control	%	98
O=c1[nH]c2ccccc2n1C1CCN(Cc2ccc(-c3nc4cc5[nH]cnc5cc4nc3-c3ccccc3)cc2)CC1	kinase still bound, per cent of control	%	66
N#C/C(=C1/Nc2ccccc2S1)c1ccnc(NCCc2cccnc2)n1	kinase still bound, per cent of control	%	1.4
COc1cc(C)c(Sc2cnc(NC(=O)c3ccc(CNC(C)C(C)C)cc3)s2)cc1C(=O)N1CCN(C(C)=O)CC1 (stereo unspecified)	kinase still bound, per cent of control	%	100

Okay, next one:
Query string: What does the record list as kinase still bound, per cent of control for "CCOc1cc(N2CCC(O)CC2)ccc1Nc1ncc2c(n1)N(C)c1ccccc1C(=O)N2C" ?
Result string: 100

====

Documented kinase still bound, per cent of control across a set of molecules
- test_system: PRKCQ (human) (UniProt Q04759)
- Sequence (Q04759 whole entry, looked up): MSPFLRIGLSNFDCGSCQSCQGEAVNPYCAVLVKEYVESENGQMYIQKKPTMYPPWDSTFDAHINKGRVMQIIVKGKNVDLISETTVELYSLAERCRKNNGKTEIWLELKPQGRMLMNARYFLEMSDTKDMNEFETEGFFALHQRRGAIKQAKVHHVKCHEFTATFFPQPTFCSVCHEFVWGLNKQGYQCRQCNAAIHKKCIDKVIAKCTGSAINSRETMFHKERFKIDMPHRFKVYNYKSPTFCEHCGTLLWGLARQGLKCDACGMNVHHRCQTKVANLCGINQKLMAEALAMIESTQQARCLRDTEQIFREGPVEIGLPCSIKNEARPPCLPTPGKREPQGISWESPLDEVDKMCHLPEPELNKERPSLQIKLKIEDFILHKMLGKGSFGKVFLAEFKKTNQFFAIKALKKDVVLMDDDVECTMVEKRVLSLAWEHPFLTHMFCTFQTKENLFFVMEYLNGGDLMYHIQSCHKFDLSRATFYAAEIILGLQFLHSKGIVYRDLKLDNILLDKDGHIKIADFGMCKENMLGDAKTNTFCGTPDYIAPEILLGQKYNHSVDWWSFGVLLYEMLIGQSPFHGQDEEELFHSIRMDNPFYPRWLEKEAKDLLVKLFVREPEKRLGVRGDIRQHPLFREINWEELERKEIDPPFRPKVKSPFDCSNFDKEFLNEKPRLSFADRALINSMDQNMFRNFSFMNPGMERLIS
- measurement_description: KINOMEscan competition binding
- measurement_setup: compound 10.0 µM
Form entry: enter the amount, then its unit.

molecule	measured_property	result
CC(=O)c1c(C)c2cnc(Nc3ccc(N4CCNCC4)cn3)nc2n(C2CCCC2)c1=O	kinase still bound, per cent of control	68%

Query string: // lookup kinase still bound, per cent of control for "COc1cc2c(Nc3ccc(NC(=O)c4ccccc4)cc3)ncnc2cc1OCCCN1CCOCC1"
Result string: 100%

Query string: Moving on to "CNC(=O)Nc1ccc(-c2nc(N3CC4CCC(C3)O4)c3cnn(C4CCC5(CC4)OCCO5)c3n2)cc1"
Result string: 100%

Query string: Follow-up entry: "CCc1nc(-c2cccc(C)c2)c(-c2ccnc(NC(=O)c3ccccc3)c2)s1"
Result string: 100%

====

- test_system: LCK (human)
- measurement_description: KINOMEscan competition binding
- measurement_setup: compound 10.0 µM
Parameter class (string): assigned from measured kinase still bound, per cent of control. Ranges: low interval: < 5%; middle interval: ≥ 5% and < 70%; high interval: ≥ 70%

compound	test_system	category_label
CCN1CCN(Cc2ccc(NC(=O)c3ccc(C)c(/C=C/c4cnc5[nH]ccc5c4OC)c3)cc2C(F)(F)F)CC1	LCK (human)	low interval
C=CC(=O)Nc1ccc(C(=O)c2sc(Nc3ccc(N4CCN(C)CC4)cc3OC)nc2N)cc1	LCK (human)	high interval
COc1cc(N2CCC(C(N)=O)CC2)ccc1Nc1nc(N)c(Cl)c(Nc2ccccc2S(=O)(=O)C(C)C)n1	LCK (human)	middle interval

Query string: Returns: class label. Input: "COc1cc2ncnc(Nc3cccc(Cl)c3)c2cc1OC"
Result string: middle interval

Query string: Entry to check: "COc1ccc(N(C(=O)Oc2cc(C(=O)Nc3cccc(C(F)(F)F)c3)ccc2C)c2ccnc(Nc3ccc(N4CCN(C)CC4)cc3)n2)c(OC)c1"
Result string: low interval

Query string: Same lookup for "N#C/C(=C1/Nc2ccccc2S1)c1ccnc(NCCc2cccnc2)n1" , please.
Result string: high interval

Query string: Same read-out for "CNC(=O)Nc1ccc(-c2nc(N3CC4CCC(C3)O4)c3cnn(C4CCC5(CC4)OCCO5)c3n2)cc1" ?
Result string: high interval

Query string: Now consider "CCCS(=O)(=O)Nc1ccc(F)c(C(=O)c2c[nH]c3ncc(Cl)cc23)c1F" .
Result string: low interval

Query string: // query: COc1cc(C)c(Sc2cnc(NC(=O)c3ccc(CNC(C)C(C)C)cc3)s2)cc1C(=O)N1CCN(C(C)=O)CC1 (stereo not given)
Result string: middle interval

Query string: Another compound to look at: "CCOc1cc(N2CCC(O)CC2)ccc1Nc1ncc2c(n1)N(C)c1ccccc1C(=O)N2C"
Result string: high interval

Query string: Do the same for "N#Cc1cc(-c2ccnc(Nc3ccc(-n4cnc(-c5cccnc5)n4)cc3)n2)cc(N2CCOCC2)c1" please
Result string: middle interval

Query string: Can you handle "CCc1nc(-c2cccc(C)c2)c(-c2ccnc(NC(=O)c3ccccc3)c2)s1" next?
Result string: middle interval

Query string: Lookup CC1=C(C(=O)Nc2cc3cn[nH]c3cc2F)C(c2ccc(C(F)(F)F)cc2)CC(=O)N1 (stereo not given)
Result string: middle interval

Query string: And then "Cc1cn(-c2cc(C(=O)Nc3ccc(C)c(NC(=O)c4ccno4)c3)cc(C(F)(F)F)c2)cn1" , what is it?
Result string: low interval
